Entries and their IC50
biological target: Inhibitor of nuclear factor kappa-B kinase subunit alpha (Homo sapiens); test: Inhibition of IKKalpha
Sequence (O15111 whole entry): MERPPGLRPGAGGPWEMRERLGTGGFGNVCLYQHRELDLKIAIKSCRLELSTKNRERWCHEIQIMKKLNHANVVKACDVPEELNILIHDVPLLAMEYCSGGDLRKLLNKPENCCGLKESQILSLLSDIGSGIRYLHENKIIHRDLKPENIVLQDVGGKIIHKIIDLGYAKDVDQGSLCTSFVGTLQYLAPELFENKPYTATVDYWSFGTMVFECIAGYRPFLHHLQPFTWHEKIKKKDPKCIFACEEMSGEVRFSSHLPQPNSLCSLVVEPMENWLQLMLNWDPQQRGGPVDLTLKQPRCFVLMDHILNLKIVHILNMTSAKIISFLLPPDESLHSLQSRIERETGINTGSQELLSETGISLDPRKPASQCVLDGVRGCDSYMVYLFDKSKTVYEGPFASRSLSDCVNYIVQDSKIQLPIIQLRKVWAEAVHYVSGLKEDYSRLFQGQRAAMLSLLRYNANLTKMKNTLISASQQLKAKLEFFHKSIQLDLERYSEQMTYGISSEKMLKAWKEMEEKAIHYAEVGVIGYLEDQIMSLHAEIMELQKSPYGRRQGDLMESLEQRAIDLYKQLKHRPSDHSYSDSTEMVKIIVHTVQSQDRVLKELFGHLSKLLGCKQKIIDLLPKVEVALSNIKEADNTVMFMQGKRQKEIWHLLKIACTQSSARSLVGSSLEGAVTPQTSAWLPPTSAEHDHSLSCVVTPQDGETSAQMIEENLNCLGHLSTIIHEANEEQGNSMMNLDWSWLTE

# COMPOUND, STUDY_SYSTEM, IC50, µM
rows = [
    ("CCCc1cc(N2CCNCC2)nc2sc(C(N)=O)c(N)c12", "Inhibitor of nuclear factor kappa-B kinase subunit alpha (Homo sapiens)", 3.4),
    ("CCCc1cc(N2CCC(O)CC2)nc2sc(C(N)=O)c(N)c12", "Inhibitor of nuclear factor kappa-B kinase subunit alpha (Homo sapiens)", 11.2),
    ("CCCc1cc(N2CCC(N)CC2)nc2sc(C(N)=O)c(N)c12", "Inhibitor of nuclear factor kappa-B kinase subunit alpha (Homo sapiens)", 0.09),
    ("CCCc1cc(N2CCCC(O)C2)nc2sc(C(N)=O)c(N)c12 (centres undefined)", "Inhibitor of nuclear factor kappa-B kinase subunit alpha (Homo sapiens)", 13.3),
]

====

Molecular target: Inhibitor of nuclear factor kappa-B kinase subunit beta (Homo sapiens, UniProt O14920)
Sequence (O14920 whole entry): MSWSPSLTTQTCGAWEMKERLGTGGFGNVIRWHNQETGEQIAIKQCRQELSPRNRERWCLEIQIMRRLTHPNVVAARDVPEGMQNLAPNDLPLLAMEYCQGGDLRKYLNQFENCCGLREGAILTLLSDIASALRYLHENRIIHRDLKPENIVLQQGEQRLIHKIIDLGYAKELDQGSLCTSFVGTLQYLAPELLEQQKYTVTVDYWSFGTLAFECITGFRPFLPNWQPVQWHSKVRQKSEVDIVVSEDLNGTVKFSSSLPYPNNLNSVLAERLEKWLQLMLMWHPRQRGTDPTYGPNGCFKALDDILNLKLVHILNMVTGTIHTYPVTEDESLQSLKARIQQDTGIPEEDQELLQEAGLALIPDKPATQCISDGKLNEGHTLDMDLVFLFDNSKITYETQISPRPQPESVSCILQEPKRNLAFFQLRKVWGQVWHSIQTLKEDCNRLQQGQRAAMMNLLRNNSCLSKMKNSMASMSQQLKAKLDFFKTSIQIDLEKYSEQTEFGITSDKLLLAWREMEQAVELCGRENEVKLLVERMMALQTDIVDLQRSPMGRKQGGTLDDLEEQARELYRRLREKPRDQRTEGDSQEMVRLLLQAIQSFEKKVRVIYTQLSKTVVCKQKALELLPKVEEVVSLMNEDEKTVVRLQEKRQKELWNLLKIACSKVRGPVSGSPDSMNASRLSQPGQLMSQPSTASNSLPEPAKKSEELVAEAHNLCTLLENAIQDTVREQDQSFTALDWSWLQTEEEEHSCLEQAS
Test: Inhibition of Flag epitope-tagged IKK-beta preincubated for 5 mins by scintillation proximity assay
ASSAY_READOUT: log10 of IC50 (log10 of the value in nM)

# MOLECULE, ASSAY_VALUE
records = [
    ("CCCc1cc(N2CCC(OC)CC2)nc2sc(C(N)=O)c(N)c12", 2.83),
    ("CCCc1cc(N2CCC(O)C(C)(C)C2)nc2sc(C(N)=O)c(N)c12 (single isomer, unassigned; enantiomer 1)", 1.62),
    ("Cc1cc(N2CCNCC2)nc2sc(C(N)=O)c(N)c12", 2.83),
    ("Cc1cc(NCCO)nc2sc(C(N)=O)c(N)c12", 3.76),
    ("Cc1cc(-c2cccs2)c2c(N)c(C(N)=O)sc2n1", 3.30),
    ("CCCc1cc(N2CCN(C)CC2)nc2sc(C(N)=O)c(N)c12", 2.72),
    ("CCCc1cc(N2CCNCC2)nc2sc(C(N)=O)c(N)c12", 2.08),
    ("CCCc1cc(N2CCC(N)CC2)nc2sc(C(N)=O)c(N)c12", 1.61),
    ("CCCc1cc(N2CC[C@@H](N)C2)nc2sc(C(N)=O)c(N)c12", 2.70),
    ("CCCc1cc(N2CC[C@H](O)C2)nc2sc(C(N)=O)c(N)c12", 3.16),
    ("Cc1cc(N2CCCC(O)C2)nc2sc(C(N)=O)c(N)c12 (stereo unspecified)", 3.38),
]
